molecular target: YAP-TEAD interaction (Homo sapiens); construct: expressed in transfected cells; host or cells: HEK293 GripTite 293 MSR (Invitrogen R795-07); experiment: Cell-based TEAD-GAL4 transactivation assay (luciferase reporter); settings: HEK293, 24 h, HEK293 cells transfected with TEAD1-Gal4, YAP mutant (S127A, S397A) and luciferase reporter, compounds 0.1 μM to 30 μM, read-out: TEAD-GAL4 Transactivation activity Max Act
readout kind: Emax (%)

In [3]: df
Out[3]:
                                    compound                                  tgt  output_unit  readout_number
 0  CN(/N=C/c1ccc2c(c1)COB2O)C1=NS(=O)(=O)c2ccccc21 [Ex 26]  YAP-TEAD interaction (Homo sapiens)            %              78
 1  CN(/N=C/c1ccc2c(c1)COB2O)c1ncnc2c(N3CCOCC3)csc12 [Ex104]  YAP-TEAD interaction (Homo sapiens)            %              79
 2  COc1cc(/C=N/N(CC(C)C)c2ncnc3cc(F)ccc23)ccc1B(O)O [Ex 18]  YAP-TEAD interaction (Homo sapiens)            %              80
 3  CCN(/N=C/c1ccc2c(c1)COB2O)c1ncnc2occc12 [Ex 43]  YAP-TEAD interaction (Homo sapiens)            %              78
 4  CCN(/N=C/c1ccc2c(c1)COB2O)c1nc(C)nc2ccsc12 [Ex 45]  YAP-TEAD interaction (Homo sapiens)            %              63
 5  COc1ccc2ncnc(N(CC(C)C)/N=C/c3ccc(B(O)O)c(OC)c3)c2c1 [Ex 19]  YAP-TEAD interaction (Homo sapiens)            %              97
 6  Cc1csc2c(N(CC(C)C)/N=C/c3ccc4c(c3)COB4O)ncnc12 [Ex93]  YAP-TEAD interaction (Homo sapiens)            %              80
 7  CCN(/N=C/c1ccc2c(c1)COB2O)c1ncnc2c(C)n[nH]c12 [Ex80]  YAP-TEAD interaction (Homo sapiens)            %              69
 8  CCN(/N=C/c1ccc2c(c1)COB2O)c1ncnc2cc(C)sc12 [Ex90]  YAP-TEAD interaction (Homo sapiens)            %              83
 9  COc1cc(/C=N/N(CC(C)C)C2=NS(=O)(=O)c3ccccc32)cc2c1B(O)OC2 [Ex 48]  YAP-TEAD interaction (Homo sapiens)            %              77
10  CC(C)CN(/N=C/c1ccc2c(c1)COB2O)C1=NS(=O)(=O)c2ccccc21 [Ex 23]  YAP-TEAD interaction (Homo sapiens)            %              88

====

molecular target: YAP-TEAD interaction (Homo sapiens); assay: Cell-based TEAD-GAL4 transactivation assay (luciferase reporter); conditions: HEK293 cells transfected with TEAD1-Gal4, YAP mutant (S127A, S397A) and luciferase reporter; compounds 0.1 μM to 30 μM, 24 h
readout kind: IC50 (nM)

A = CCc1csc2c(N(C)/N=C/c3ccc4c(c3)COB4O)ncnc12
B = COCCN(/N=C/c1ccc2c(c1)COB2O)c1ncnc2nc(SC)sc12.Cl [Ex95, hydrochloride]
C = CCCn1ccc2c(N(CC)/N=C/c3ccc4c(c3)COB4O)ncnc21
D = COc1cc(/C=N/N(CC(C)C)C2=NS(=O)(=O)c3ccc(OCCCO)cc32)ccc1B(O)O
Reorder the items by IC50, least to greatest. Answer by naming the labels in the order asked.
B, A, C, D

====

readout kind: melting point

In [3]: df
Out[3]:
                              sample_smiles         result
0   CN(/N=C/c1ccc2c(c1)COB2O)c1ncnc2c1cnn2C  250 to 260 °C
1  COCCN(/N=C/c1ccc2c(c1)COB2O)c1ncnc2nc(SC)sc12.Cl  252 to 264 °C
2  CCN(/N=C/c1ccc2c(c1)COB2O)c1ncnc2[nH]ccc12         245 °C
3  CCN(/N=C/c1ccc2c(c1)COB2O)c1ncnc2nc(N(C)C)sc12  247 to 253 °C
4   CCN(/N=C/c1ccc2c(c1)COB2O)c1ncnc2occc12         225 °C
5  COc1cc(/C=N/N(C)c2ncnc3c(C)csc23)ccc1B(O)O  237 to 267 °C
6  CN(/N=C/c1ccc2c(c1)COB2O)c1ncnc2c1CC(=O)N2C  288 to 307 °C

Now for a further compound.
Endpoint output: melting point of "CN(/N=C/c1ccc2c(c1)COB2O)c1ncnc2c1[nH]c(=O)n2C" . Value?
180 to 200 °C

====

biological target: YAP-TEAD interaction (Homo sapiens, UniProt P28347); assay: Cell-based TEAD-GAL4 transactivation assay (luciferase reporter); details: HEK293 cells transfected with TEAD1-Gal4, YAP mutant (S127A, S397A) and luciferase reporter; compounds 0.1 μM to 30 μM, 24 h
Sequence (P28347 whole entry, the tested form may be a part): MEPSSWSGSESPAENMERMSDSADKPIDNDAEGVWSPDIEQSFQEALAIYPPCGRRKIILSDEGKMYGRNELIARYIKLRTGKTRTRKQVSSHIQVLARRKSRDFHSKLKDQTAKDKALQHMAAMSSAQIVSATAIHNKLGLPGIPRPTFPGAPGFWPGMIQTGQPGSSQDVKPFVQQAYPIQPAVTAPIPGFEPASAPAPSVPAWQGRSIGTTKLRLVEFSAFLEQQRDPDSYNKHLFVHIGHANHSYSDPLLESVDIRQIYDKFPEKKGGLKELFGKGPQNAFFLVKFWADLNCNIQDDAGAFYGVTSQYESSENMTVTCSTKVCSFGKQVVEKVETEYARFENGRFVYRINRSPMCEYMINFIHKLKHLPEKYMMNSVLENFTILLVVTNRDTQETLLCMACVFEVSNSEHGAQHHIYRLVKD
pIC50: −log10 of the molar value.
readout kind: pIC50

>>> print(df.to_string())
                              sample_smiles  readout_kind  readout_number
0  CCN(/N=C/c1ccc2c(c1)COB2O)c1nc(C)nc2ccsc12         pIC50            5.99
1  COCCOc1ccc2c(c1)C(N(CC(C)C)/N=C/c1ccc(B(O)O)c(OC)c1)=NS2(=O)=O         pIC50            5.63
2  COc1cc(/C=N/N(CC(C)C)C2=NS(=O)(=O)c3ccccc32)ccc1B(O)O         pIC50            5.14

P = CCN(/N=C/c1ccc(B(O)O)c(OC)c1)c1ncnc2c(C)csc12
Q = CCN(/N=C/c1ccc2c(c1)COB2O)c1ncnc2ncsc12
Higher pIC50: P or Q ? Reply briefly: the label of your chosen item.
Q

====

molecular target: YAP-TEAD interaction (Homo sapiens, UniProt P28347); assay: Cell-based TEAD-GAL4 transactivation assay (luciferase reporter); conditions: HEK293 cells transfected with TEAD1-Gal4, YAP mutant (S127A, S397A) and luciferase reporter; compounds 0.1 μM to 30 μM, 24 h
Counter-ions that a name gives are not always drawn.
readout kind: IC50 (nM)

                                   compound  output_unit  readout_number
0  CCN(/N=C/c1ccc2c(c1)COB2O)c1ncnc2c(C(=O)NCCCCOC)csc12           nM            1940
1  Cc1csc2c(N(C)/N=C/c3ccc4c(c3)COB4O)ncnc12           nM             320
2  CC1OB(O)c2ccc(/C=N/N(C)C3=NS(=O)(=O)c4ccccc43)cc21 (stereo not drawn)           nM            5130

A = CN(/N=C/c1ccc2c(c1)COB2O)C1=NS(=O)(=O)C2=C1CCCC2
B = COc1cnnc(N(C)/N=C/c2ccc3c(c2)COB3O)c1
Higher IC50: A or B ? Reply briefly: the label of your chosen item.
A
(A: 8480 nM, B: 5000 nM)

P = CN(/N=C/c1ccc2c(c1)COB2O)c1ncnc2c1[nH]c(=O)n2C1CC(O)C1 (stereo not drawn) [Ex109, hydrochloride]
Q = Cc1csc2c(N(CCO)/N=C/c3ccc4c(c3)COB4O)ncnc12
Higher IC50: P or Q ? Reply briefly: the label of your chosen item.
P
(P: 1650 nM, Q: 660 nM)

====

Molecular target: YAP-TEAD interaction (Homo sapiens)
Assay: Cell-based TEAD-GAL4 transactivation assay (luciferase reporter)
Details: HEK293 cells transfected with TEAD1-Gal4, YAP mutant (S127A, S397A) and luciferase reporter; compounds 0.1 μM to 30 μM, 24 h
Experimental: To identify inhibitors of YAP-TEAD interaction, a transient transactivation assay was carried out on HEK293 cell line (HEK293 GripTite™ 293 MSR (Invitrogen R795-07)) using plasmids containing the full length TEAD1 sequences, the full length YAP mutant (S127A, S397A) and a luciferase gene reporter. […] 24 h later, the luciferase activity was determined after addition of 100 μl of Steady Glo™ luciferase assay system (Promega E2550) according to the manufacturer's directions. […]
readout kind: IC50 (nM)

Example entries and their recorded answers appear below.
                                   compound  readout_kind  readout_number
0  COc1cc(C2=NN(c3ncnc4c(OC)cccc34)C(C)CC2)ccc1B(O)O (centres unmarked) [Ex 55]          IC50            1530
1  COc1cc(/C=N/N(CC(C)C)C2=NS(=O)(=O)c3ccc(C)cc32)ccc1B(O)O          IC50            3430
2  CCCCN(CCCC)C(=O)c1csc2c(N(CC)/N=C/c3ccc4c(c3)COB4O)ncnc12          IC50            1740
3  CN(/N=C/c1ccc2c(c1)COB2O)c1ncnc2c(-c3ccccc3)csc12          IC50            1990
4  COc1ccc2c(c1)C(N(C)/N=C/c1ccc3c(c1)COB3O)=NS2(=O)=O          IC50            4550

a = COc1cc(C2=NN(c3ncnc4c3ccn4C)C(C)CC2)ccc1B(O)O (centres unmarked)
b = CC(C)CN(/N=C/c1ccc2c(c1)C(C)OB2O)C1=NS(=O)(=O)c2ccccc21 (centres unmarked)
c = CSc1nc2ncnc(N(CC(C)C)/N=C/c3ccc4c(c3)COB4O)c2s1
Please list these in order of increasing IC50. Thank you! Answer by naming the labels in the order asked.
c, a, b

a = CN(/N=C/c1ccc2c(c1)COB2O)c1ncnc2c(N3CCOCC3)csc12
b = COc1cccc2c(N(C)/N=C/c3ccc4c(c3)COB4O)ncnc12
Of a and b , which shows the smaller IC50 value? Reply briefly: the label of your chosen item.
a

I = CCN(/N=C/c1ccc2c(c1)COB2O)c1ncnc2cn[nH]c12
II = CCN(/N=C/c1ccc2c(c1)COB2O)c1ncnc2sccc12
III = CCC(C)N(/N=C/c1ccc(B(O)O)c(OC)c1)C1=NS(=O)(=O)c2ccccc21 (centres unmarked)
Please list these in order of increasing IC50. Thank you! Answer by naming the labels in the order asked.
II, I, III
(II: 690 nM, I: 2220 nM, III: 4160 nM)

1 = CCN(/N=C/c1ccc(B(O)O)c(OC)c1)c1ncnc2occc12
2 = CSc1nc2ncnc(N(C)/N=C/c3ccc4c(c3)COB4O)c2s1
3 = CCN(/N=C/c1ccc2c(c1)COB2O)c1nc(C)nc2c(C)csc12
Please list these in order of increasing IC50. Thank you! Answer by naming the labels in the order asked.
3, 2, 1
